Recorded inhibition by entry
measurement.notes: inhibitors of TNFa-induced NFkB p65 translocation, primary screen, imaging, HUVEC, MLSMR starter and 10KST1 sets (AID 438);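 note: compound added about 3h40 before a 20 min TNFalpha stimulation; signal is the nuclear over cytoplasmic p65 intensity ratio per well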
assay.setup: HUVEC TNFa-induced p65 nuclear translocation; at 2 µM, active compounds read high, 0% TNFa-plus-vehicle, 100% no-TNFa wells
Provide only the numeric value, understood in %.

Cc1ccccc1OCc1nc2ccccc2c(=O)n1/N=C/c1ccco1: -13.1
COc1cccc(C(c2nnnn2Cc2ccccc2)N2CCN(C(=O)c3ccco3)CC2)c1OC (centres undefined): 4.3
Cc1nnc(SCc2nnc(-c3ccccc3Br)o2)n1-c1ccccc1: 14.5

The compound listed as Cc1nn(C(=O)c2ccccc2)c2c1C(=O)CC(C)(C)C2 has a reported inhibition of 1.3

The compound listed as O=C(OC1CCOC1=O)c1ccc2ccccc2n1 (centres undefined) has a reported inhibition of 4.2

The compound listed as COC(=O)C1=C(C)NC(=O)C1(NC(=O)CN1CCCC1=O)C(F)(F)F (centres undefined) has a reported inhibition of 3.6

The compound listed as COCCOC(=O)C1=C(N)OC2=C(C(=O)CC(C)(C)C2)C1c1cccnc1 (centres undefined) has a reported inhibition of 4.8

The compound listed as c1ccc(-c2cc(CSc3nc4ccccc4[nH]3)on2)cc1 has a reported inhibition of 5.3

The compound listed as Cc1cccc(NC(=O)c2cnc3sccn3c2=O)n1 has a reported inhibition of -1.9

The compound listed as O=C1C2C3C=CC(C3)C2C(=O)N1CNc1ccc(O)cc1 (centres undefined) has a reported inhibition of 8.9

The compound listed as CCN(CC)S(=O)(=O)c1ccc(NC(=O)c2cccc3c2C(=O)N(CCOC)C3)cc1 has a reported inhibition of -3.6

Every entry's value here was drawn from PubChem BioAssay.
